Tested on: 941728-121-R-J1-PDC complex spheroid viability
Assay: Anticancer human tumor 941728-121-R-J1-PDC patient-derived lung adenocarcinoma cell line growth inhibition [RAS]
Conditions: second compound 0.00949 µM; first compound 0.01 µM; active compounds read low
Give measured viability, T/C for each item. Keep answers brief.
Number in %, nothing else.

Fill in: viability, T/C of C=CC(=O)N1CCN(c2nc(OCC3CCCN3C)nc3c(F)c(-c4nc(N)cc(C)c4C(F)(F)F)c(Cl)cc23)C(C)C1 (centres undefined) + CCn1c(-c2cccnc2C(C)OC)c2c3cc(ccc31)N1CCOC(CC(NC(=O)C(C(C)C)N(C)C(=O)C3(F)CCN(C(=O)C#CC(C)(C)N(C)C)CC3)C(=O)N3CCCC(N3)C(=O)OCC(C)(C)C2)C1 is ___ 21.1

viability, T/C for CCN1CCN(Cc2ccc(Nc3ncc(F)c(-c4cc(F)c5nc(C)n(C(C)C)c5c4)n3)nc2)CC1 + CCn1c(-c2cccnc2C(C)OC)c2c3cc(ccc31)N1CCOC(CC(NC(=O)C(C(C)C)N(C)C(=O)C3(F)CCN(C(=O)C#CC(C)(C)N(C)C)CC3)C(=O)N3CCCC(N3)C(=O)OCC(C)(C)C2)C1 ? 21.9

Look at this compound and give its reported viability, T/C. O=C(c1ccc(F)c(F)c1Nc1ccc(I)cc1F)N1CC(O)([C@@H]2CCCCN2)C1 + CCn1c(-c2cc(N3CCN(C)CC3)cnc2C(C)OC)c2c3cc(ccc31)-c1csc(n1)CC(NC(=O)C1CC1C)C(=O)N1CCCC(N1)C(=O)OCC(C)(C)C2 11

GET /values?readout=viability, T/C&item= Nc1ccn(C2OC(CO)C(O)C2(F)F)c(=O)n1 (centres undefined) + CCn1c(-c2cc(N3CCN(C)CC3)cnc2C(C)OC)c2c3cc(ccc31)-c1csc(n1)CC(NC(=O)C1CC1C)C(=O)N1CCCC(N1)C(=O)OCC(C)(C)C2 11.3

---

Test system: 941728-121-R-J1-PDC complex spheroid viability
Experiment: Anticancer human tumor 941728-121-R-J1-PDC cell line growth inhibition [RAS];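 note: spheroids exposed to compounds for 7 days before readout; 100% = DMSO vehicle control viability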
Details: second compound 0.0949 µM; first compound 3.16 µM; active compounds read low
Value Kind: viability, T/C (%)
Entry rule: numbers only, all in %.

What measured viability, T/C goes with CCC(CC)c1cc(NC2CCC(N)C2)n2nccc2n1 (centres undefined) + CCn1c(-c2cccnc2C(C)OC)c2c3cc(ccc31)N1CCOC(CC(NC(=O)C(C(C)C)N(C)C(=O)C3(F)CCN(C(=O)C#CC(C)(C)N(C)C)CC3)C(=O)N3CCCC(N3)C(=O)OCC(C)(C)C2)C1 ? 16.1

Report viability, T/C for CC1(O)CCCC1n1c(=O)c(C(F)F)cc2cnc(NC3CCN(S(C)(=O)=O)CC3)nc21 (centres undefined) + CCn1c(-c2cc(N3CCN(C)CC3)cnc2C(C)OC)c2c3cc(ccc31)-c1csc(n1)CC(NC(=O)C1CC1C)C(=O)N1CCCC(N1)C(=O)OCC(C)(C)C2 please. 9.56

Suppose we examine the compound CCC(CC)c1cc(NC2CCC(N)C2)n2nccc2n1 (centres undefined) + CCn1c(-c2cc(N3CCN(C)CC3)cnc2C(C)OC)c2c3cc(ccc31)-c1csc(n1)CC(NC(=O)C1CC1C)C(=O)N1CCCC(N1)C(=O)OCC(C)(C)C2 ; what viability, T/C value has been reported? 18.7

I am curious: what viability, T/C value has been reported for C[C@@H](NC(=O)c1ncnc(N)c1Cl)c1ncc(C(=O)Nc2cc(C(F)(F)F)c(Cl)cn2)s1 + CCn1c(-c2cccnc2C(C)OC)c2c3cc(ccc31)N1CCOC(CC(NC(=O)C(C(C)C)N(C)C(=O)C3(F)CCN(C(=O)C#CC(C)(C)N(C)C)CC3)C(=O)N3CCCC(N3)C(=O)OCC(C)(C)C2)C1 ? 21.2

Taken from PubChem BioAssay AID2060896.
